assay system: T1, human heterodimeric single-chain CD3εγ extracellular domain (human, UniProt P07766 23-126; P09693 23-116)
T1 construct: extracellular domain; Produced in-house; also called scCD3γε; human CD3ge
T1 sequence (P07766 23-126, chain 1 of 2): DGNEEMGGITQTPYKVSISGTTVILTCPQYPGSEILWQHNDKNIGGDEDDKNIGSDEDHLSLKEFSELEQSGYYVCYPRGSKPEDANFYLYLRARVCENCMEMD
T1 sequence (P09693 23-116, chain 2 of 2): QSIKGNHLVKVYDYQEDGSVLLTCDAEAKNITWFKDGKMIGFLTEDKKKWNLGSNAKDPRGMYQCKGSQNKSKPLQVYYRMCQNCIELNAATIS
assay method text: SPR, rabbit IgG captured, human single-chain CD3εγ ECD injected
Threshold-based label: Kd under 1 nM gives rule met, Kd not under 1 nM gives rule not met.

{"columns": ["binder", "class assignment"],
 "data": [
  ["clone-06 (antibody, V domains shown, Recombinant rabbit IgG; also called Clone 6) VH: QSVEESGGRLVTPGTPLTLTCTVSGFPLSSYAMIWVRQAPGKGLEWIGMILRAGNIYYASWVKGRVTISKTSTTVDLKITSPTTEDTATYFCARRHYNREGYPIGIGDLWGPGTLVTVSS VL: AQVLTQTPSSVSAAVGGTVTISCQSSESVYNNKRLSWFQQKPGQPPKQLIYTASSLASGVPSRFKGSGSGTQFTLTISDLECDDAATYYCQGEFTCSNADCFTFGGGTEVVVKG", "rule not met"],
  ["clone-12 (antibody, V domains shown, Recombinant rabbit IgG) VH: QSLEESGGRLVTPGTPLTLTCTVSGFPLSRYAMLWVRQAPGKGLEWIGLITRADNKYYASWAKGRFTISKTSTTVDLEITSPTTEDTATYFCARRHYNTDGYPIAIGDLWGPGTLVTVSS VL: AQVLTQTPSSVSATVGGTVTISCQSNENIYSNNRLSWFQQKPGQPPKLLIYSASSLASGVPSRFKGSGSGTQFTLTISDLECDDAATYYCQGEFNCNSADCFTFGGGTEVVVKG", "rule not met"],
  ["clone-11 (antibody, V domains shown, Recombinant rabbit IgG) VH: QSLEESGGRLVTPGTPLTLTCTVSGFPLSSYAMGWFRQAPGKGLEWIGMILRADNTYYASWVNGRFTISKTSTTVDLKITSPTTEDTATYFCARRHYNTYGYPVAIGDLWGPGTLVTVSS VL: AQVLTQTPSSVSAAVGGTVTINCQSSQSVYNNNRLSWFQQKPGQPPKLLIYTASSLASGVPSRFKGSGSGTEFTLTISDLECADAATYYCQGEFSCSSADCFTFGGGTEVVVKG", "rule not met"],
  ["clone-03 (antibody, V domains shown, Recombinant rabbit IgG; also called Clone 3) VH: QSLEESGGRLVTPGTPLTLTCTVSGFPLNRYAMLWVRQAPGKGLEWIGLITRADKKYYASWAKGRFTISKTSTTVDLEITGPTTEDTATYFCARRHYNTDGYPIAIGDLWGPGTLVTVSS VL: AQVLTQTPSSVSAAVGGTVTISCQSNENIYSNNRLSWFQQKPGQPPNQLIYSASSLASGVPSRFKGSGSGTQFTLTISDLECDDAATYYCQGEFNCNSADCFTFGGGTEVVVKG", "rule met"],
  ["clone-04 (antibody, V domains shown, Recombinant rabbit IgG; also called Clone 4) VH: QSLEESGGRLVKPDETLTLTCTVSGFPLSSYAMGWFRQAPGKGLEWIGMILRSDNTYYASWAKGRFTISKTSTTVDLKITSPTTEDTATYFCARRHYNASGNPIAIGDLWGPGTLVTVSS VL: AQVLTQTPSSVSAAVGGTVTINCQSSQSVYNNNRLSWFQQKPGQPPKLLIYTTSSLASGVPSRFKGSGSGTEFTLTISDLECADAATYYCQGEFSCSRADCFNFGGGTEVVVKG", "rule met"],
  ["clone-02 (antibody, V domains shown, Recombinant rabbit IgG; also called Clone 2) VH: QSLEESGGRLVTPGTPLTLTCTVSGFPLSAYAMIWVRQAPGKGLEWIGMIIRSGTVYYANWAKGRFTISKTSTTVDLKITSPTTEDTATYFCARRHYNADGYPIGIGDLWGPGTLVTVSS VL: AQVLTQTPSSVSAVVGGTVTISCQSSESVYSNNRLSWFQQKPGQPPKLLIYSASTLASGVPSRFKGSGSGTQFTLTITDLECDDAATYFCQGEFSCSSVDCFSFGGGTEVVVKG", "rule met"],
  ["clone-01 (antibody, V domains shown, Recombinant rabbit IgG; also called purified monoclonal rabbit anti-CD3ε antibody clone-01) VH: QSVEESGGRLVTPGTPLTLTCTVSGFPLSSYAMIWVRQAPGKGLEWIGMILRAGNIYYASWAKGRFTISKTSTTVDLKITSPTTEDTATYFCARRQYNTDGYPIGIGDLWGPGTLVTVSS VL: AQVLTQTASSVSAAVGGTVTISCQSSESVYNNNRLSWFQQKPGQPPKQLIYSASSLASGVPSRFKGSGSGTQFTLTISDLECDDAATYYCQGEFSCSSADCFTFGGGTEVVVKG", "rule not met"]
]}
